EXPERIMENTAL PROTOCOL: Test Example 7 (1): acute toxicity test in mice
PROTOCOL CONDITIONS: mouse, in vivo, po, female mice; read-out: 50% lethal dose (LD50)
RECORDED METRIC: LD50 (mg/kg)
Dear colleague, please return just the value in mg/kg, with no unit written.

Quick check: LD50 of COc1ccccc1OCCNCC(O)c1ccc(C)c(S(N)(=O)=O)c1 (stereo not shown) ? 5700

Source: patent US5663205A
